- Assayed system: varicella zoster virus DNA polymerase (Varicella-zoster virus)
- Sequence (P09252 whole entry): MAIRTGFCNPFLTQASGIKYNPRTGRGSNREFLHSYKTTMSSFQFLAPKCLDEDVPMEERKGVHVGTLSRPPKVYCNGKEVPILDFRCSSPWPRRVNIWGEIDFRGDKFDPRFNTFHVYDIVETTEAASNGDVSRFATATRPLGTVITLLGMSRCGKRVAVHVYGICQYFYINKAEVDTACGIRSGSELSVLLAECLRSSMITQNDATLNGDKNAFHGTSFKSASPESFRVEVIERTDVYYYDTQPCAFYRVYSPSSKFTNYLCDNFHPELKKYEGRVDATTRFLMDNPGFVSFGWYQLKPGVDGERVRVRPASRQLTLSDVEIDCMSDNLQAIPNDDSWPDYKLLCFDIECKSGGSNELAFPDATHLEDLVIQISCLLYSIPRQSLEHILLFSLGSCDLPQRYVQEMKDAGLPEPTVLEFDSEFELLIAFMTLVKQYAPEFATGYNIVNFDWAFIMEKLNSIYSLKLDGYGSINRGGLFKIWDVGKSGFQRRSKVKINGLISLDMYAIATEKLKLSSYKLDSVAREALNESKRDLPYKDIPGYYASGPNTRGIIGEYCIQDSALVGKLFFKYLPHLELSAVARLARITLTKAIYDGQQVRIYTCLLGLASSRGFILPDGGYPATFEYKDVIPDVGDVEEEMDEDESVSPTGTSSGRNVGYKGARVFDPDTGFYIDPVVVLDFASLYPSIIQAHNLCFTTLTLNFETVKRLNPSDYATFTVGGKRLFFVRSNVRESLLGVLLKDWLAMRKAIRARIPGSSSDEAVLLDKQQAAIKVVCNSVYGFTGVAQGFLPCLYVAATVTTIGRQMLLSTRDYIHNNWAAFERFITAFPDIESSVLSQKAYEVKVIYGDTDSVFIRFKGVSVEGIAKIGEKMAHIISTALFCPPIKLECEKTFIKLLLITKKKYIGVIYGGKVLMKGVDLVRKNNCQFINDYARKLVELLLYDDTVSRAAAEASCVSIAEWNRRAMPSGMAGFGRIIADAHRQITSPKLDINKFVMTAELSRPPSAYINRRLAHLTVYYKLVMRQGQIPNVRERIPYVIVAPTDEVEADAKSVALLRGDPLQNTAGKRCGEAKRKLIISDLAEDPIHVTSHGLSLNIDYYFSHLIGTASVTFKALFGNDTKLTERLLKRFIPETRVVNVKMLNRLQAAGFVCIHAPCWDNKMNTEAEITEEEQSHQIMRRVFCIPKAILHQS
Each record's class is read off its IC50 using these ranges: category 1 (below 0.01 µM), category 2 (0.01 µM to below 0.02 µM), category 3 (0.02 µM or more)

> print(dat)
                                    compound  class.name
 1  N#Cc1ccc(CNC(=O)c2cc(O[C@H]3CCN4C(=O)OC[C@@H]4C3)c(-c3cnn(C(F)F)c3)cn2)cc1  category 2
 2  O=C(NCc1ccc(Cl)cc1)c1cc(O[C@H]2CCN3C(=O)OC[C@@H]3C2)c(N2CC(O)C2)cn1  category 1
 3  CC(=O)N1CCC(Oc2cc(C(=O)NCc3ccc(Cl)cc3)ncc2-c2cnn(C(F)F)c2)CC1C (centres unmarked)  category 1
 4  CC(=O)N1CCC(Oc2cc(C(=O)NCc3ccc(Cl)cc3)ncc2-c2nnc(C)s2)CC1  category 2
 5  O=C(NCc1ccc(Cl)cc1)c1cc(O[C@H]2CCN3C(=O)CCC[C@@H]3C2)c(-c2cnn(C(F)F)c2)cn1 (single isomer, unassigned)  category 3
 6  CC(=O)N1CCC(Oc2cc(C(=O)NCc3ccc(Cl)cc3)ncc2-c2nnc(C3CC3)s2)CC1  category 2
 7  O=C(NCc1ccc(Cl)cc1)c1cc(O[C@H]2CCN3C(=O)OC[C@@H]3C2)c(C2CC2CO)cn1 (single isomer, unassigned) [Compound 156-1]  category 3
 8  CCn1cc(-c2cnc(C(=O)NCc3ccc(Cl)cc3)cc2O[C@H]2CCN3C(=O)OC[C@@H]3C2)cn1 (racemic)  category 2
 9  CC(=O)N1CCC(Oc2cc(C(=O)NCc3ccc(Cl)cc3)ncc2-c2cn(C)c(C)n2)CC1  category 3
10  O=C(NCc1ccc(Cl)cc1)c1cc(O[C@H]2CCN3C(=O)OC[C@@H]3C2)c(CO)cn1  category 3
11  O=C(NCc1ccc(Cl)cc1F)c1cc(O[C@H]2CCN3C(=O)OC[C@@H]3C2)c(-c2cnn(C(F)F)c2)cn1  category 3
12  O=C(NCc1ccc(Cl)cc1)c1cc(O[C@H]2CCN3C(=O)OC[C@@H]3C2)c(-c2cnco2)cn1  category 1
13  O=C(NCc1ccc(Cl)cc1)c1cc(O[C@H]2CCN3C(=O)OC[C@@H]3C2)c(C2CC2CO)cn1 (single isomer, unassigned) [Compound 156-2]  category 1
14  O=C(NCc1ccc(Cl)cc1)c1cc(O[C@H]2CCN3C(=O)OC[C@@H]3C2)c(-c2cnn(C3CC3)c2)cn1  category 1
15  Cn1cc(-c2cnc(C(=O)NCc3ccc(Cl)cc3F)cc2O[C@H]2CCN3C(=O)OC[C@@H]3C2)cn1  category 2
16  O=C(NCc1ccc(Cl)cc1)c1cc(O[C@H]2CCN3C(=O)OC[C@@H]3C2)c(-c2cnn(CC(F)(F)F)c2)cn1  category 3
17  COCCn1cc(-c2cnc(C(=O)NCc3ccc(Cl)cc3)cc2O[C@H]2CCN3C(=O)OC[C@@H]3C2)cn1  category 1
18  O=C(NCc1ccc(Cl)cc1)c1cc(O[C@H]2CCN3C(=O)OC[C@@H]3C2)c(CCO)cn1  category 3
19  CC(=O)N1CCC(Oc2cc(C(=O)NCc3ccc(Cl)cc3)ncc2-c2ccn(C)n2)CC1  category 3
20  CC(C)n1cc(-c2cnc(C(=O)NCc3ccc(Cl)cc3)cc2O[C@H]2CCN3C(=O)OC[C@@H]3C2)cn1  category 2
21  O=C(NCc1ccc(Cl)c(F)c1)c1cc(O[C@H]2CCN3C(=O)OC[C@@H]3C2)c(-c2cnn(C(F)F)c2)cn1  category 1
22  Cn1cc(-c2cnc(C(=O)NCc3ccc(Cl)cc3)cc2O[C@H]2CCN3C(=O)OC[C@@H]3C2)cn1  category 1
23  Cn1cc(-c2cnc(C(=O)NCc3ccc(Cl)cc3)cc2O[C@H]2CCN3C(=O)NC[C@H]3C2)cn1 (racemic)  category 3
24  CC(=O)N1CCC(Oc2cc(C(=O)NCc3ccc(Cl)cc3)ncc2-c2ncc(C)s2)CC1  category 2
25  O=C(NCc1ccc(Cl)cc1)c1cc(O[C@H]2CCN3C(=O)OC[C@@H]3C2)c(-c2cc[nH]n2)cn1  category 2

Recorded values, source patent US20240067657A1.
